pIC50: −log10 of the molar value.
Measured pIC50 on Human thrombin (Homo sapiens, UniProt P00734) follows.
measurement.name: pIC50

> print(dat)
                              record.smiles                               target.desc  modifier.sign  readout.value
1  CC(C)Nc1nc(Cl)c(-c2cccc(N)c2)n(CC(=O)NNc2ccc(C(=N)N)cc2)c1=O  Human thrombin (Homo sapiens, UniProt P00734)              =           4.46
2  CC(C)Nc1nc(Cl)c(-c2cc(N)cc(C(=O)NC3CCC3)c2)n(CC(=O)NCc2ccc(C(=N)N)cc2)c1=O  Human thrombin (Homo sapiens, UniProt P00734)              =           4.88
3  N=C(N)c1ccc(COCCn2c(-c3cccc(N)c3)c(Cl)nc(NC3CCC3)c2=O)cc1  Human thrombin (Homo sapiens, UniProt P00734)              =           4.32
4  Nc1cccc(-c2c(Cl)nc(NC3CCC3)c(=O)n2CC(=O)NCc2ccc3[nH]cnc3c2)c1  Human thrombin (Homo sapiens, UniProt P00734)              <           4.52
